molecular target: Beta-secretase 1 (Homo sapiens); assay: Inhibition of BACE1 by fluorescence-based assay
Sequence (P56817 whole entry): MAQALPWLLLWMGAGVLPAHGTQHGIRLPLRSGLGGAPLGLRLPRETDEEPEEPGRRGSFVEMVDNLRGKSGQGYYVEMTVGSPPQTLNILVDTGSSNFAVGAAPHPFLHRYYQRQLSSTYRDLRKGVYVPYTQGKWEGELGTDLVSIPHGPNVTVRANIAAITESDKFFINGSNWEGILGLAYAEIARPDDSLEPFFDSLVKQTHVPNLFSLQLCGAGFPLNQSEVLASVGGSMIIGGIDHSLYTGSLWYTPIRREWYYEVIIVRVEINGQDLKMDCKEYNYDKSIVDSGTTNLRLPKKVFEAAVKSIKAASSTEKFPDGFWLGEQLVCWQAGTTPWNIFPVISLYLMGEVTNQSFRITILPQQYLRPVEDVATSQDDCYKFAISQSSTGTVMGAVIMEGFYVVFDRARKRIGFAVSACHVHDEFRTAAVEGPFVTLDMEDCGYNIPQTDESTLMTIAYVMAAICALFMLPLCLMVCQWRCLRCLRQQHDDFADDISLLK
measured.quantity: pIC50
One number for each entry, as −log10 of the molar value.

compound	pIC50
O=C(c1ccc(Cl)c(Cl)c1)N(CC(O)Cn1c2ccccc2c2ccccc21)c1ccccc1 (stereo unspecified)	5.60
COc1ccc(C(=O)N(CC(O)Cn2c3ccccc3c3ccccc32)c2ccccc2)cc1 (stereo unspecified)	5.42

Proceed to the following item.
Entry OC(CNc1cccc2ccccc12)Cn1c2ccccc2c2ccccc21 (stereo unspecified) : reported pIC50 = ?
5.52

###

Provide the reported IC50 of each item.
biological target: Beta-secretase 1 (Homo sapiens)

Example entries and their recorded answers appear below.
compound	meas.value
O=C(c1ccccc1)N(CC(O)Cn1c2ccccc2c2ccccc21)c1ccc(C(F)(F)F)cc1 (stereo not drawn)	> 10 µM
Cc1ccc(CN(CC(O)Cn2c3ccccc3c3ccccc32)C(=O)c2ccccc2)cc1 (stereo not drawn)	> 10 µM

Proceed to the following item.
Recorded IC50 for O=C(c1ccccc1)N(Cc1ccccc1)CC(O)Cn1c2ccccc2c2ccccc21 (stereo not drawn) with Beta-secretase 1 (Homo sapiens), please?
> 10 µM
